test system: 769-P; test: GI50, drug alone; higher = less potent; conditions: treatment: drug alone; 5 days
propertyName: GI50, drug alone (µM)
Unit µM implied. Number only.

Example entries and their recorded answers appear below.
### Prompt For the compound `Cn1c(=O)c(F)c(Nc2ccc(I)cc2F)c2c(=O)n(C[C@@H](O)CO)cnc21` , give its reported GI50, drug alone.
### Response 0.933

### Prompt Give a short answer stating reported GI50, drug alone for `O=C(Cc1ccc(-c2ccc(OCCN3CCOCC3)cc2)cn1)NCc1ccccc1` .
### Response 0.0606

### Prompt Fill in GI50, drug alone for record `CS(=O)(=O)O.O=C(Nc1cccc(Cl)c1)Nc1ncc(CCNc2ncnc3ccsc23)s1`
### Response 0.506

### Prompt Identify measured GI50, drug alone corresponding to `COc1cc2c(Oc3ccc(NC(=O)C4(C(=O)Nc5ccc(F)cc5)CC4)cc3F)ccnc2cc1OCCCN1CCOCC1`
### Response 2.91

# next compound below
### Prompt # return recorded GI50, drug alone for input `CCOc1cc2ncc(C#N)c(Nc3ccc(OCc4ccccn4)c(Cl)c3)c2cc1NC(=O)/C=C/CN(C)C`
### Response 1.14
